target: L1 transport system (large neutral amino acid carrier, L1-system carrier) (Rattus norvegicus, UniProt Q63016); construct: functionality of their endogenous transporters such as the L1-system carrier; endogenous in cells; host or cells: rat primary cerebrovascular (brain microcapillary) endothelial cells, RBEC; experiment: Competitive binding assay to the brain L1 transport system (L-[U-14C]phenylalanine on rat primary cerebrovascular endothelial cells); details: 10^−6 M
Sequence (Q63016 whole entry): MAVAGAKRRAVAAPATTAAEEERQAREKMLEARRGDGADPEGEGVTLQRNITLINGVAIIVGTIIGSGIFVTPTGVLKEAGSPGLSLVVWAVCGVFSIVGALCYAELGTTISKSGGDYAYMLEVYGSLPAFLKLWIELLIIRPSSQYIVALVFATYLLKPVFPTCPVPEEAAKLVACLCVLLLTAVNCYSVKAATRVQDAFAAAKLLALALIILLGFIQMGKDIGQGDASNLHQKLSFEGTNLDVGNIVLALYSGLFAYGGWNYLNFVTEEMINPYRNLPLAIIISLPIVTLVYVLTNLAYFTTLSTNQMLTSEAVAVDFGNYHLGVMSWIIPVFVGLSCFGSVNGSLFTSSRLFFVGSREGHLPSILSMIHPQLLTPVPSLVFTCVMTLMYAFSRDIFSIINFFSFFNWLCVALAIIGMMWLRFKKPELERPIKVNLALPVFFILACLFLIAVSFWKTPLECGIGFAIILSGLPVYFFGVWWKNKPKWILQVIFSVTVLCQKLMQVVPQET
Sequence (Q794F9 whole entry partner): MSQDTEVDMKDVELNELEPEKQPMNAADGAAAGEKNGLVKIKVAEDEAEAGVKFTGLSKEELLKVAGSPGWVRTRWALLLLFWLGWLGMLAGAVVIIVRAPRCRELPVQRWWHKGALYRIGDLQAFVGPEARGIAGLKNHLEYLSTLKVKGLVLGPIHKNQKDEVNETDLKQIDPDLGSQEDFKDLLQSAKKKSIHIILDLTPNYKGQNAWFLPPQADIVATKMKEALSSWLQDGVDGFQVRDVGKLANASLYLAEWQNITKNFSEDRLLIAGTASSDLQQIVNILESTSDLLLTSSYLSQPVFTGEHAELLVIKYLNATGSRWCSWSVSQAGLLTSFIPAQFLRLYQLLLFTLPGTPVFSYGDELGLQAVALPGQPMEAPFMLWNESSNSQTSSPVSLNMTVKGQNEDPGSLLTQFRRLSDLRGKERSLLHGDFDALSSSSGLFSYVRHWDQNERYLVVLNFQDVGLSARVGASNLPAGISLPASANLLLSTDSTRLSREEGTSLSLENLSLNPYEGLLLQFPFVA
reported.endpoint: Comparison with the Binding of Phenylalanine

**Query** Hello, please tell me recorded Comparison with the Binding of Phenylalanine for this one: COc1ccc2[nH]c(SCc3cccc(CC(N)C(=O)O)c3)nc2c1 (stereo not drawn)
**Result** 2 (10 < X < 20 Rank 2)

**Query** Hello, please tell me recorded Comparison with the Binding of Phenylalanine for this one: Cc1ccnc(SCc2cccc(CC(N)C(=O)O)n2)n1 (stereo not drawn)
**Result** 1 (0 < X < 10 Rank 1)

**Query** Hello, please tell me recorded Comparison with the Binding of Phenylalanine for this one: N[C@@H](Cc1ccccc1)C(=O)NC(Cc1cccc(CSc2nc3ccccc3[nH]2)n1)C(=O)O (stereo partly drawn)
**Result** 3 (X > 20 Rank 3)

**Query** Hello, please tell me recorded Comparison with the Binding of Phenylalanine for this one: NC(Cc1cccc(CSc2cncc3c(C(F)(F)F)cccc23)n1)C(=O)O (stereo not drawn)
**Result** 3 (X > 20 Rank 3)

**Query** Hello, please tell me recorded Comparison with the Binding of Phenylalanine for this one: NC(Cc1cccc(CSc2nc(-c3ccccc3)c(-c3ccccc3)[nH]2)n1)C(=O)O (stereo not drawn)
**Result** 2 (10 < X < 20 Rank 2)

**Query** Hello, please tell me recorded Comparison with the Binding of Phenylalanine for this one: NC(Cc1cccc(CSc2nc3ccccc3c(=O)[nH]2)c1)C(=O)O (stereo not drawn)
**Result** 1 (0 < X < 10 Rank 1)

**Query** Hello, please tell me recorded Comparison with the Binding of Phenylalanine for this one: NC(=O)C(N)Cc1cccc(CSc2ncnc3[nH]ncc23)n1 (stereo not drawn)
**Result** 1 (0 < X < 10 Rank 1)

**Query** Hello, please tell me recorded Comparison with the Binding of Phenylalanine for this one: O=C(NC(Cc1cccc(CSc2nccc(O)n2)c1)C(=O)O)NC(c1ccccc1)c1ccccc1 (stereo not drawn)
**Result** 2 (10 < X < 20 Rank 2)

**Query** Hello, please tell me recorded Comparison with the Binding of Phenylalanine for this one: NC(Cc1cccc(CSc2nnc[nH]2)n1)C(=O)O (stereo not drawn)
**Result** 3 (X > 20 Rank 3)

====

molecular target: L1 transport system (large neutral amino acid carrier, L1-system carrier) (Rattus norvegicus, UniProt Q63016); construct: functionality of their endogenous transporters such as the L1-system carrier; endogenous in cells; host or cells: rat primary cerebrovascular (brain microcapillary) endothelial cells, RBEC; experiment: Competitive binding assay to the brain L1 transport system (L-[U-14C]phenylalanine on rat primary cerebrovascular endothelial cells); settings: 10^−4 M
reported.endpoint: Comparison with the Binding of Phenylalanine

**Query** Hello, please tell me recorded Comparison with the Binding of Phenylalanine for this one: NC(Cc1cccc(CSc2nnc(-c3ccccc3)o2)c1)C(=O)O (stereo not drawn)
**Result** 2 (10 < X < 20 Rank 2)

**Query** Hello, please tell me recorded Comparison with the Binding of Phenylalanine for this one: NC(Cc1cccc(-c2cccc(N3CCc4ccccc4C3)c2)c1)C(=O)O (stereo not drawn)
**Result** 0 (X < 0 Rank 0)

**Query** Hello, please tell me recorded Comparison with the Binding of Phenylalanine for this one: NC(=O)C(N)Cc1cccc(CSc2nnnn2-c2ccccc2)c1 (stereo not drawn)
**Result** 0 (X < 0 Rank 0)

**Query** Hello, please tell me recorded Comparison with the Binding of Phenylalanine for this one: NC(Cc1cccc(CSc2nccc(C(F)(F)F)n2)n1)C(=O)O (stereo not drawn)
**Result** 0 (X < 0 Rank 0)

**Query** Hello, please tell me recorded Comparison with the Binding of Phenylalanine for this one: CN(C)CCn1nnnc1Sc1cccc(-c2cccc(CC(N)C(=O)O)c2)c1 (stereo not drawn)
**Result** 2 (10 < X < 20 Rank 2)

**Query** Hello, please tell me recorded Comparison with the Binding of Phenylalanine for this one: NC(Cc1cccc(-c2cccc(Sc3ccc4ccccc4n3)c2)c1)C(=O)O (stereo not drawn)
**Result** 0 (X < 0 Rank 0)

**Query** Hello, please tell me recorded Comparison with the Binding of Phenylalanine for this one: NC(Cc1cccc(-c2cccc(Sc3nc(-c4ccccc4)c(-c4ccccc4)o3)c2)c1)C(=O)O (stereo not drawn)
**Result** 0 (X < 0 Rank 0)

**Query** Hello, please tell me recorded Comparison with the Binding of Phenylalanine for this one: NC(Cc1cccc(-c2cccc(N3CCN(c4ccc(F)cc4)CC3)c2)c1)C(=O)O (stereo not drawn)
**Result** 2 (10 < X < 20 Rank 2)

**Query** Hello, please tell me recorded Comparison with the Binding of Phenylalanine for this one: NC(Cc1cccc(CSc2nnc(-c3ccncc3)o2)c1)C(=O)O (stereo not drawn)
**Result** 0 (X < 0 Rank 0)
